TARGET_ENTITY: OPRD1 (Homo sapiens, UniProt P41143)
Sequence (P41143 whole entry): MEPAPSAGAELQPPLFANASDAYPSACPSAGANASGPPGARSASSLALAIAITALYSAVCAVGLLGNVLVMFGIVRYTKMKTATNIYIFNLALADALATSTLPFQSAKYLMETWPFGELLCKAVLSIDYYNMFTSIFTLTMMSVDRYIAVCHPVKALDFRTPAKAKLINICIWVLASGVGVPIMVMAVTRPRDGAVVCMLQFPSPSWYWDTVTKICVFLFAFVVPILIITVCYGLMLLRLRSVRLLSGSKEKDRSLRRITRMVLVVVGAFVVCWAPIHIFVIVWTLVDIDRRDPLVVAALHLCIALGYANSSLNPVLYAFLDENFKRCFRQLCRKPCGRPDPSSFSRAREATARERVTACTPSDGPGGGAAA
METHOD_NOTES: SAFETYscan cAMP OPRD1 Antagonist
Excerpt: Supplement jm3c00155_si_002.xlsx, sheet "SAFETYScan" | column: RC50 (uM); Max Response
pIC50: −log10 of the molar value.
EXPERIMENTAL_ENDPOINT: pIC50

Check the records and state pIC50 for Cn1c(=O)c2c(c3cc(Nc4ccnc(F)c4Cl)ccc31)N[C@@H](C1CC1)C(F)(F)CO2
< 5.00

----------
TARGET_ENTITY: UniProt:P35372
METHOD_NOTES: SAFETYscan cAMP OPRM1 Antagonist
Excerpt: Supplement jm3c00155_si_002.xlsx, sheet "SAFETYScan" | column: RC50 (uM); Hill; Max Response
EXPERIMENTAL_ENDPOINT: pIC50
pIC50 here: minus log base 10 of the concentration, concentration in moles per litre.

Check the records and state pIC50 for Cn1c(=O)c2c(c3cc(Nc4ccnc(F)c4Cl)ccc31)N[C@@H](C1CC1)C(F)(F)CO2 [compound 17]
5.36

----------
TARGET_ENTITY: UniProt:P22303
EXPERIMENTAL_ENDPOINT: IC50

Fetch value of IC50 on UniProt:P22303 for Cn1c(=O)c2c(c3cc(Nc4ccnc(F)c4Cl)ccc31)N[C@@H](C1CC1)C(F)(F)CO2 [compound 17] .
> 10 µM

----------
TARGET_ENTITY: ADRA2A (Homo sapiens, UniProt P08913)
Sequence (P08913 1-465): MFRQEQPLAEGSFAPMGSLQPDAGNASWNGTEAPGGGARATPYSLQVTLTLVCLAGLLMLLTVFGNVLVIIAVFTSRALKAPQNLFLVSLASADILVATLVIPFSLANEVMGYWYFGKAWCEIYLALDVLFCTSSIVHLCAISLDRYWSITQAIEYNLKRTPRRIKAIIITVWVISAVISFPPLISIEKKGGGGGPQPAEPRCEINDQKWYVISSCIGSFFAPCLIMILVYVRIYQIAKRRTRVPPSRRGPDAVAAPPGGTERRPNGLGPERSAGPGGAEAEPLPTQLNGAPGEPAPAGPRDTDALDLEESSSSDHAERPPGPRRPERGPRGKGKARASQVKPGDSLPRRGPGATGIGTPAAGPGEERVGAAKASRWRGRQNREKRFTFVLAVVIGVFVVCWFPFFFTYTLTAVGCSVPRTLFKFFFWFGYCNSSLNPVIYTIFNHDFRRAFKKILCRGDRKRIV
METHOD_NOTES: SAFETYscan cAMP ADRA2A Antagonist
EXPERIMENTAL_ENDPOINT: IC50

Fetch value of IC50 on ADRA2A (Homo sapiens, UniProt P08913) for Cn1c(=O)c2c(c3cc(Nc4ccnc(F)c4Cl)ccc31)N[C@@H](C1CC1)C(F)(F)CO2 [compound 17] .
> 10 µM

----------
METHOD_NOTES: NMR aqueous solubility assay
TEST_PARAMETERS: HEPES buffer, aqueous with cosolvent or surfactant or cyclodextrin
EXPERIMENTAL_ENDPOINT: solubility kinetic at 20 h (µM)
Give the value, in units of µM, as a plain number.

Check the records and state solubility kinetic at 20 h for Cn1c(=O)c2c(c3cc(Nc4ccnc(Cl)c4Cl)ccc31)N[C@@H](C1CC1)C(F)(F)CO2
6

----------
TARGET_ENTITY: HRH1 (Homo sapiens, UniProt P35367)
Sequence (P35367 whole entry): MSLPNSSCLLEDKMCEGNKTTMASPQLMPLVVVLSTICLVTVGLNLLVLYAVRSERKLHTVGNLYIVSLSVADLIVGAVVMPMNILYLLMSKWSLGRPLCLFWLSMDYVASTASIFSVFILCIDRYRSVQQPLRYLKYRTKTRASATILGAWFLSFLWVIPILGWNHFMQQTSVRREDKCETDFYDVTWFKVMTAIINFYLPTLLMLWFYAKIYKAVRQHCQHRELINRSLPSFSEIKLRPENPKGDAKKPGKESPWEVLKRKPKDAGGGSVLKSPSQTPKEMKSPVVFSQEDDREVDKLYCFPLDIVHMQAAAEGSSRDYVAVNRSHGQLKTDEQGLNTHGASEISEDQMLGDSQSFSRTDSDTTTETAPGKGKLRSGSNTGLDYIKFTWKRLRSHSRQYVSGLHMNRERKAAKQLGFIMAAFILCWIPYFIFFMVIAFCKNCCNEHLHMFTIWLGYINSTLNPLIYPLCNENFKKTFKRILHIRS
METHOD_NOTES: SAFETYscan Calcium Flux HRH1 Agonist
Assay type: cell-based
TEST_PARAMETERS: read-out: RC50 (EC50)
pEC50: −log10 of the molar value.
EXPERIMENTAL_ENDPOINT: pEC50

Check the records and state pEC50 for Cn1c(=O)c2c(c3cc(Nc4ccnc(F)c4Cl)ccc31)N[C@@H](C1CC1)C(F)(F)CO2
< 5.00

----------
TARGET_ENTITY: PDE4D2 (Homo sapiens)
Sequence (Q08499 303-809 limits assumed): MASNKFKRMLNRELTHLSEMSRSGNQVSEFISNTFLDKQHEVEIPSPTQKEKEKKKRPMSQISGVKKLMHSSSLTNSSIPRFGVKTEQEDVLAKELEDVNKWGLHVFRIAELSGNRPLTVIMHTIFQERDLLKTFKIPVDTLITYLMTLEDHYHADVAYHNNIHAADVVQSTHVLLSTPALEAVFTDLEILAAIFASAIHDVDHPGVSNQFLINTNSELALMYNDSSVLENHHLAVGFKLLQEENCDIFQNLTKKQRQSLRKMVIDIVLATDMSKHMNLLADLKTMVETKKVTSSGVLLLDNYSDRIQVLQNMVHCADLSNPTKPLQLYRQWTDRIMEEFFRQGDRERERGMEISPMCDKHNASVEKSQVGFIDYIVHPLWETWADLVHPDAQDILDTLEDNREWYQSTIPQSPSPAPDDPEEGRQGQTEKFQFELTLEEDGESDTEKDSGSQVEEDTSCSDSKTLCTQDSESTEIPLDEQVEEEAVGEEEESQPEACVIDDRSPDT
EXPERIMENTAL_ENDPOINT: IC50

Check the records and state IC50 for Cn1c(=O)c2c(c3cc(Nc4ccnc(F)c4Cl)ccc31)N[C@@H](C1CC1)C(F)(F)CO2
> 10 µM

----------
TARGET_ENTITY: CNR1 (Homo sapiens, UniProt P21554)
METHOD_NOTES: SAFETYscan cAMP CNR1 Antagonist
EXPERIMENTAL_ENDPOINT: IC50

Check the records and state IC50 for Cn1c(=O)c2c(c3cc(Nc4ccnc(F)c4Cl)ccc31)N[C@@H](C1CC1)C(F)(F)CO2
> 10 µM

----------
TARGET_ENTITY: CCKAR (Homo sapiens)
Sequence (P32238 whole entry): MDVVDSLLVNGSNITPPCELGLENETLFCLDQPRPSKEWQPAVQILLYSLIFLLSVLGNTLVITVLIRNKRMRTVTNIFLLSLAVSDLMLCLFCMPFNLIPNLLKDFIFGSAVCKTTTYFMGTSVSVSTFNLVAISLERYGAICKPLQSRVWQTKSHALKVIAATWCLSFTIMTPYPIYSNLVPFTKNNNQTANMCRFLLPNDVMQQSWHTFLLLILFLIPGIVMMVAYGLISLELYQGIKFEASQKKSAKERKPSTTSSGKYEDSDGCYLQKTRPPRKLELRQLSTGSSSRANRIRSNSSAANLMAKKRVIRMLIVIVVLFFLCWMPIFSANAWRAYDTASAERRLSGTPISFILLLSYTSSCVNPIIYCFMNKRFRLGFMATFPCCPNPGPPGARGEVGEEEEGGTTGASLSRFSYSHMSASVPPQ
METHOD_NOTES: SAFETYscan Calcium Flux CCKAR Agonist
TEST_PARAMETERS: read-out: RC50 (EC50)
pEC50: −log10 of the molar value.
EXPERIMENTAL_ENDPOINT: pEC50

Fetch value of pEC50 on CCKAR (Homo sapiens) for Cn1c(=O)c2c(c3cc(Nc4ccnc(F)c4Cl)ccc31)N[C@@H](C1CC1)C(F)(F)CO2 [compound 17] .
< 5.00

----------
TARGET_ENTITY: HTR2A (Homo sapiens, UniProt P28223)
METHOD_NOTES: SAFETYscan Calcium Flux HTR2A Agonist
EXPERIMENTAL_ENDPOINT: EC50

Fetch value of EC50 on HTR2A (Homo sapiens, UniProt P28223) for Cn1c(=O)c2c(c3cc(Nc4ccnc(F)c4Cl)ccc31)N[C@@H](C1CC1)C(F)(F)CO2 .
> 10 µM

----------
TARGET_ENTITY: UniProt P06213
Sequence (P06213 28-1382): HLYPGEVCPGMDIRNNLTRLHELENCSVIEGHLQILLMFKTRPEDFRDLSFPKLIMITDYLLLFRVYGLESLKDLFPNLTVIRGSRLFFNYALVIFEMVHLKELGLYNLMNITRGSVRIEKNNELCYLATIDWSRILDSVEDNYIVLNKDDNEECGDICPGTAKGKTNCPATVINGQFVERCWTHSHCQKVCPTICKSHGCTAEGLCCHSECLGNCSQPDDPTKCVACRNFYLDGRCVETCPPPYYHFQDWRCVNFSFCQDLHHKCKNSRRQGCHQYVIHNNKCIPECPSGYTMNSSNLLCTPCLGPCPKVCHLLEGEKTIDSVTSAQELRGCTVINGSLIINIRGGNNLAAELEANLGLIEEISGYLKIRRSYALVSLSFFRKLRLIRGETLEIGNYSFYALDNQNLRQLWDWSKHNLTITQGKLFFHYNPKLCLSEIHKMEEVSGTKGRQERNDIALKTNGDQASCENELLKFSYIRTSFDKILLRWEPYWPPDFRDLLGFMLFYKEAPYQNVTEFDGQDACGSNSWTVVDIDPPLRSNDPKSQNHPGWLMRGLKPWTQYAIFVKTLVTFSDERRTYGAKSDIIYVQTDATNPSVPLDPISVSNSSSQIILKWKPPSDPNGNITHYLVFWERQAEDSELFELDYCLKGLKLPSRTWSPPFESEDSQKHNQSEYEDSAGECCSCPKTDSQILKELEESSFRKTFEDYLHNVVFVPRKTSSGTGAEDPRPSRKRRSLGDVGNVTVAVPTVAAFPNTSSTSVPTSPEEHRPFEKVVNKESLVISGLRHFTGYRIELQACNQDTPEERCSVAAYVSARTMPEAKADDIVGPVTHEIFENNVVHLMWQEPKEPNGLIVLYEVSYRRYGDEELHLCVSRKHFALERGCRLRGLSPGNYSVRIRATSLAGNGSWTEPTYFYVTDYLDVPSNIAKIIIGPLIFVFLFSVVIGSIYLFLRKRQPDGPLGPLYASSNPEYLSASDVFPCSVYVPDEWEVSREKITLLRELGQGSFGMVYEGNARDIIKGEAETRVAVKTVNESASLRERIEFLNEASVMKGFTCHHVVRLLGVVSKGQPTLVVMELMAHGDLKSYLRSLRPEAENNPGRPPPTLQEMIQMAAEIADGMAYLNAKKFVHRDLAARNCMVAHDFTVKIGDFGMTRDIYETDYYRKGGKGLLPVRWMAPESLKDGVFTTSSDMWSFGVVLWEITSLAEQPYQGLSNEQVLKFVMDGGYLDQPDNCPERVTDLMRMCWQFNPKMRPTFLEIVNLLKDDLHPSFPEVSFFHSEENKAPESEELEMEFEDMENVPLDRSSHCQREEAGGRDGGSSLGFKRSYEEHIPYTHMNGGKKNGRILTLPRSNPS
pIC50: −log10 of the molar value.
EXPERIMENTAL_ENDPOINT: pIC50

Fetch value of pIC50 on UniProt P06213 for Cn1c(=O)c2c(c3cc(Nc4ccnc(F)c4Cl)ccc31)N[C@@H](C1CC1)C(F)(F)CO2 .
< 5.00

----------
TARGET_ENTITY: NMDAR (1A/2B) (Homo sapiens, UniProt Q05586+Q13224)
Sequence (Q13224 27-1484, other chains not shown): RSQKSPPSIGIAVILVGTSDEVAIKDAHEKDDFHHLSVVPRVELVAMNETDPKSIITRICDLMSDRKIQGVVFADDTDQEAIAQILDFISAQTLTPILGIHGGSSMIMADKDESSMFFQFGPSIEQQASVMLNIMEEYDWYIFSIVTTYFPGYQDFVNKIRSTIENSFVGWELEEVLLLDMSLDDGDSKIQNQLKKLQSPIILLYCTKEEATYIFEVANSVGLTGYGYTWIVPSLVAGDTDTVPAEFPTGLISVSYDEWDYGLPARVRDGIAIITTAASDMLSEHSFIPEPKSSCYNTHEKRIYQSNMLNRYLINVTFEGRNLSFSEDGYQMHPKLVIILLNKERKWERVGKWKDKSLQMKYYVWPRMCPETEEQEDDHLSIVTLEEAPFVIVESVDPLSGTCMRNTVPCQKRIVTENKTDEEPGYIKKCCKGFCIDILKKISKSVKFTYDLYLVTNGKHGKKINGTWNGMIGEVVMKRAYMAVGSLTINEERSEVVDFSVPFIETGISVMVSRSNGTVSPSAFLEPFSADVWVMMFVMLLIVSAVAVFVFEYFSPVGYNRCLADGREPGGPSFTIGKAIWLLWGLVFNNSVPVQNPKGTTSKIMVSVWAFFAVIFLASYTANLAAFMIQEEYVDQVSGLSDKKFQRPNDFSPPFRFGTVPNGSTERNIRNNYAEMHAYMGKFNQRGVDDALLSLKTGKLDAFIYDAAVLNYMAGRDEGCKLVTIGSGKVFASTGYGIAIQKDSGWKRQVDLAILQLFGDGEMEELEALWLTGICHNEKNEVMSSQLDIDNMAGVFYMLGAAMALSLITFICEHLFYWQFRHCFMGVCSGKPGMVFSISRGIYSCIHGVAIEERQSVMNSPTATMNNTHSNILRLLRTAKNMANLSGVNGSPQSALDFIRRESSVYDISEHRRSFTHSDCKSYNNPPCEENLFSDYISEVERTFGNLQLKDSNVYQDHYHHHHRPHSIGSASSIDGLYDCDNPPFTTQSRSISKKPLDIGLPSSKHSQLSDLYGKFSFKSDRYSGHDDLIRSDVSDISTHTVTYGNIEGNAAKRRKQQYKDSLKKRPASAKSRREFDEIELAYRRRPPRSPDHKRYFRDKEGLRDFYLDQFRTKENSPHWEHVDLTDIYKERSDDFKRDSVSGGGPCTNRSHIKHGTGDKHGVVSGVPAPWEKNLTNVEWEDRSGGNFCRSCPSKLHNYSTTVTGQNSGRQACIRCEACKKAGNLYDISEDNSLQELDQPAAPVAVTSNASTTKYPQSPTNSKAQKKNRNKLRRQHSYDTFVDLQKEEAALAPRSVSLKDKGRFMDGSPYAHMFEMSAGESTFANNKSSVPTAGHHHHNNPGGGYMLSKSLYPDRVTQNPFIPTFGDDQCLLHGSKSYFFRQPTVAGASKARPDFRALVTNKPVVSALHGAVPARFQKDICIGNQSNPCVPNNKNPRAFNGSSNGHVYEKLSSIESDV
METHOD_NOTES: SAFETYscan Ion Channel NMDAR (1A/2B) Opener
pEC50: −log10 of the molar value.
EXPERIMENTAL_ENDPOINT: pEC50

Check the records and state pEC50 for Cn1c(=O)c2c(c3cc(Nc4ccnc(F)c4Cl)ccc31)N[C@@H](C1CC1)C(F)(F)CO2 [compound 17]
< 5.00

----------
TARGET_ENTITY: DRD2S (Homo sapiens, UniProt P14416)
Sequence (P14416 1-414 isoform P14416-2): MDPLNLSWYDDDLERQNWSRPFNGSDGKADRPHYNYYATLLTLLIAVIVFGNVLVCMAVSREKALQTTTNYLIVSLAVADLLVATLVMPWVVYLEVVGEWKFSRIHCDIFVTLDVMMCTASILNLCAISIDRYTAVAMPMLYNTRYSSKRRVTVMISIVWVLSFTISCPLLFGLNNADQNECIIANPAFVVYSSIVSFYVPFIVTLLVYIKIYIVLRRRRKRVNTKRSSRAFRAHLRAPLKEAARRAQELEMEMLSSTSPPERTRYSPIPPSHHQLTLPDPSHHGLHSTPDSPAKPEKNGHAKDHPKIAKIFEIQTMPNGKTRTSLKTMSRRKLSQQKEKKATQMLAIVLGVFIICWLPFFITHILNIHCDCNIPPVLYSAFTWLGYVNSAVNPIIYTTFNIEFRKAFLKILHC
METHOD_NOTES: SAFETYscan cAMP DRD2S Antagonist
pIC50: −log10 of the molar value.
EXPERIMENTAL_ENDPOINT: pIC50

Check the records and state pIC50 for Cn1c(=O)c2c(c3cc(Nc4ccnc(F)c4Cl)ccc31)N[C@@H](C1CC1)C(F)(F)CO2
< 5.00

----------
TARGET_ENTITY: ADRA2A (Homo sapiens)
METHOD_NOTES: SAFETYscan cAMP ADRA2A Agonist
pEC50: −log10 of the molar value.
EXPERIMENTAL_ENDPOINT: pEC50

Check the records and state pEC50 for Cn1c(=O)c2c(c3cc(Nc4ccnc(F)c4Cl)ccc31)N[C@@H](C1CC1)C(F)(F)CO2
< 5.00

----------
TARGET_ENTITY: human BCL6 BTB domain (Homo sapiens)
METHOD_NOTES: BCL6 TR-FRET assay
Format: binding
TEST_PARAMETERS: Table S1; read-out: BCL6 TR-FRET IC90 Geometric Mean
Procedure: 1. Supplementary experimental: protein production, purification and crystallography 1.1 BCL6 constructs used for assays and crystallography […] cleavage site. For the TR-FRET assay, the Trx-6His-HRV3C-BCL6 protein construct was used without cleaving the tag, as a 6His was needed to bind to the anti-6His-Terbium antibody. […] The final protein was assessed for purity and molar mass by SDS-PAGE and high-resolution mass spectrometry, respectively. […]
EXPERIMENTAL_ENDPOINT: IC90 (nM)
Give the value, in units of nM, as a plain number.

Worked examples, 5 compounds total:
Cn1c(=O)c2c(c3cc(Nc4ccnc(Cl)c4C#N)ccc31)N[C@@H](C1CC1)C(F)(F)CO2 : 30.1
Cn1c(=O)c2c(c3cc(Nc4nc(N5CC(F)C5)ncc4Cl)ccc31)N[C@@H](C1CC1)C(F)(F)CO2 : 50.2
Cc1nccc(Nc2ccc3c(c2)c2c(c(=O)n3C)OCC(F)(F)[C@H](C3CC3)N2)c1Cl : 158
Cn1c(=O)c2c(c3cc(Nc4nc(N5CC(C#N)C5)ncc4Cl)ccc31)N[C@@H](C1CC1)C(F)(F)CO2 : 46.6
Cn1c(=O)c2c(c3cc(Nc4ccnc(F)c4Cl)ccc31)N[C@@H](C1CC1)C(F)(F)CO2 : 56.7

Check the records and state IC90 for COC1CN(c2ncc(Cl)c(Nc3ccc4c(c3)c3c(c(=O)n4C)OCC(F)(F)[C@H](C4CC4)N3)n2)C1
34.1

Check the records and state IC90 for Cn1c(=O)c2c(c3cc(Nc4nc(N5C6CCC5COC6)ncc4Cl)ccc31)N[C@@H](C1CC1)C(F)(F)CO2
10.2
